Cited source: PubChem BioAssay (NCI)

Here the recorded growth is given for each entry.
# System: NCI-H522 lung
# protocol-description: NCI-60 one-dose screen, 48 h (100 = growth as untreated, 0 = no growth, -100 = all killed)
# test-settings: 10 µM unless noted
About 83,000 compounds went through this panel and 20% of them were active in at least one assay; those are over-represented in the sample as a whole.

mol | measurement-target | unit-tag | growth
O=C(O)c1ccc([S-])cc1.[Au+].c1ccc(CN2[CH-]N(Cc3ccccc3)C(c3ccccc3)=C2c2ccccc2)cc1 | NCI-H522 lung | % | -44.9
ClC1=C(Cl)C(Cl)(C2(Cl)C(Cl)=C(Cl)C(Cl)=C2Cl)C(Cl)=C1Cl | NCI-H522 lung | % | -68.2
O=C(Nc1ccc(O)cc1)C(Cl)(Cl)Cl | NCI-H522 lung | % | 91.2
CCOP(=O)(NC[C@H]1O[C@](O)(CO)[C@@H](O)[C@@H]1O)OCC | NCI-H522 lung | % | 88.3
CNC(=O)Oc1ccc(N(C)C)cc1C(C)C | NCI-H522 lung | % | 92.2
C=CC[PH+](c1ccccc1)c1ccccc1.C=CC[PH+](c1ccccc1)c1ccccc1.[Cl][Pt][Cl] | NCI-H522 lung | % | 9.41
COc1cc2c(cc1OCCCCCn1c(-c3ccco3)nc3ccccc31)N=C[C@@H]1CCCN1C2=O | NCI-H522 lung | % | -23.9
O=[N+]([O-])c1c(Br)sc(Br)c1[N+](=O)[O-] | NCI-H522 lung | % | -72.9

###

# Tested on: HCC-2998 colon
# protocol-description: NCI-60 one-dose screen, 48 h (100 = growth as untreated, 0 = no growth, -100 = all killed)
# test-settings: 10 µM unless noted
# Description: Growth inhibition of the HCC-2998 human tumor cell line is measured as a screen for anti-cancer activity. Cells are grown in 96 well plates and exposed to the test compound for 48 hours. Compounds are tested at a single concentration, which is 10^-5 M for most compounds. The reported endpoint is percent growth (GI% or GIPRCNT), where numbers from 0 - 100% represent growth inhibition, and numbers from -100% - 0 represent cell death. For example, a value of 40 represents 60% growth inhibition. […]
This is part of a sample that, as a whole, favours compounds with a hit. Of some 83,000 tested, about 20% had one in any assay.
Label scheme, based on growth: lower bin (below 30%), middle bin (30% to below 80%), upper bin (80% or more)

compound | group-label
COC(=O)[C@@H](C)C[C@H](Cc1ccccc1)NC(=O)c1csc([C@@H](C[C@H](C(C)C)N(C)C(=O)C2(NC(=O)[C@H]3CCCCN3C)CCC2)OC(C)=O)n1 | lower bin
Cc1ccc(S(=O)(=O)C(Cl)(Cl)Cl)cc1 | upper bin
Cn1cc(C2=C(c3cn(C4CCN(Cc5ccccn5)CC4)c4ccccc34)C(=O)NC2=O)c2ccccc21 | middle bin
CC[C@H](C)[C@H](NC(=O)[C@H]1CCCCN1C)C(=O)N(C)[C@H](C[C@@H](OC(C)=O)c1cccc(C(=O)N[C@@H](Cc2ccccc2)C[C@H](C)C(=O)O)n1)C(C)C | lower bin
COc1cccc2c1c(C(=O)C(=O)Nc1cc(C)no1)cn2Cc1ccc(F)cc1 | middle bin
C[C@@H]1C[C@@]2(C)[C@@H](CC[C@@H]3[C@@H]2CC[C@]2(C)C(=O)CC[C@@H]32)CC1=O | upper bin
N/C(=N\N=C\c1ccc(-c2ccccc2)cc1)N[N+](=O)[O-] | middle bin
Clc1ccc(CSC(Cn2ccnc2)c2ccc(Cl)cc2Cl)cc1 (stereo not given) | middle bin
CC(C)(C)C(=O)OCOP(=O)(OCOC(=O)C(C)(C)C)C1CCCN(O)C1=O (stereo not given) | lower bin
CCOC(=O)N[C@H]1CCc2c(Br)c(OC)c(OC)c(OC)c2-c2ccc(SC)c(=O)cc21 | lower bin
C=CC[PH+](c1ccccc1)c1ccccc1.C=CC[PH+](c1ccccc1)c1ccccc1.[Cl][Pt][Cl] | upper bin
CC1=C(CCCOC(=O)[C@H](N)CC(C)C)C2=C(C)C3(CC3)[C@@](C)(O)C(=O)C2=C1 | lower bin
COC(=O)CCc1c[nH]c2ccc(N(CCCl)CCCl)cc12 | upper bin
COC(=O)[C@@H](C)C[C@H](Cc1ccccc1)NC(=O)c1csc([C@@H](C[C@H](C(C)C)N(C)C(=O)[C@@H](NC(=O)C23CC(NC(C)=O)(C2)C3)C2CC2)OC(C)=O)n1 | middle bin
CC12CCC3C(C=CC4=C(N)C(=O)CCC43C)C1CCC2=O (stereo not given) | upper bin
COc1cc(C=C2c3ccccc3C(=O)c3ccccc32)ccc1OCCCCOc1cc2c(cc1OC)C(=O)N1CCCC1C=N2 (stereo not given) | lower bin
COC(=O)[C@H](Cc1ccccc1)NC(=O)c1csc([C@@H](C[C@H](C(C)C)N(C)C(=O)[C@@H](NC(=O)[C@H]2CCCN2C)C2CC2)OC(C)=O)n1 | lower bin
O=C(CCCC1CCCCC1)OCC(Cl)(Cl)Cl | upper bin
O=C1CC2(CC3(Cl)C(Cl)=C(Cl)C2(Cl)C3(Cl)Cl)C(=O)O1 (stereo not given) | upper bin
